Quick reference for log10 AC50 among some compounds
# Tested on: Plasmodium falciparum Dd2 asexual blood stage parasites
# procedure_text: microbe, parasite or virus in culture
# Set-up: species or system Plasmodium falciparum Dd2 in human erythrocytes; single determination (one 11-point concentration-response curve)
# details: Plasmodium falciparum, DD2, Erythrocyte, 72 h; read-out: AC50
// units: µM (pre-log); metric: AC50; scale: log10

// below: answered compounds
1. Cc1ccc(C(=O)N/N=C/c2ccc([N+](=O)[O-])s2)cc1 | 0.78
2. COc1cc2c(cc1O)CC[n+]1cc3c(OC)c(OC)ccc3cc1-2 | 0.88
3. CC(C)c1ccc(CC(=O)N2CCCc3ncc(C(=O)Nc4cccnc4)cc32)cc1 | -0.06
4. COc1ccc(-c2ccc3ncc(Nc4ccncc4)n3n2)cc1OC | 0.69
5. Cc1cc(Nc2cc(Cl)cc(Cl)c2)nc(N)n1 | 0.82

Reported log10 AC50 for COc1ccc(-n2cc(CNCCCn3ccnc3)c(-c3ccccc3Cl)n2)cc1 : what is it?
0.53

Reported log10 AC50 for Cc1ccccc1N(C)C1CN(Cc2ccccc2)C1 : what is it?
1.29

Reported log10 AC50 for CN(C)c1cccc(Nc2cc3c(cn2)CN(Cc2ccccc2)CCN3)c1 : what is it?
1.14

Reported log10 AC50 for CCCCN(CC)CCNC(=O)c1cc2c(-c3ccc(Cl)cc3)nn(C)c2s1 : what is it?
-0.18

Reported log10 AC50 for Cc1ccccc1C1C(C#N)=C2N=C(N)c3c(sc4c3CCCCC4)N2C2=C1C(=O)CCC2 (stereo not drawn) : what is it?
0.42

---

Quick reference for AC50 among some compounds
# System: Plasmodium falciparum Dd2 asexual blood stage parasites
# procedure_text: microbe, parasite or virus in culture
# Design: species or system Plasmodium falciparum Dd2 in human erythrocytes; single determination (one 11-point concentration-response curve)
# details: Plasmodium falciparum, DD2, Erythrocyte, 72 h; read-out: AC50
Write the numeric value and append its unit.

// below: answered compounds
1. CC(NCc1ccccc1)c1ccccc1O (stereo not shown) [MLS000850790-01] | 5.31 µM
2. COc1cc2nc(NCc3ccc(C)cc3)n3nc(-c4ccccc4)nc3c2cc1OC [NCGC00112855-01] | 0.266 µM
3. COc1ccc(C2C=C(c3ccc(Cl)cc3)Nc3nc(-c4ccc(Cl)cc4)nn32)cc1 (stereo not shown) [NCGC00100531-01] | 0.237 µM

Reported AC50 for CCN(CC)CCNc1ccnc2cc(Cl)ccc12 [MLS000066547-01] : what is it?
0.211 µM

Reported AC50 for Cn1cccc1CN1CCCC2(Cc3ccccc3CNC2=O)C1 (stereo not shown) [NCGC00377565-01] : what is it?
13.2 µM

Reported AC50 for CCN(CC)CCC(c1ccc(N(C)C)cc1)c1c(O)cc(OC)cc1OC (stereo not shown) [MLS000879508-01] : what is it?
3.35 µM

Reported AC50 for Cc1ccc(CN2CC[C@@H]3C(=O)NCCCCCCN(Cc4ccncc4)[C@@H]3C2)o1 [NCGC00467213-01] : what is it?
2.11 µM

Reported AC50 for Cc1nc2c(c(-c3ccc(O)cc3)n1)CN(Cc1ccc(C(F)(F)F)cc1)CCC2 [NCGC00480263-01] : what is it?
4.22 µM
